Tested on: OVCAR-5 complex spheroid (HUVEC/MSC), viability % T/C
Test: Anticancer human tumor OVCAR-5 cell line growth inhibition [Asc];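 note: spheroids exposed to agents for 7 days before readout; 100% = DMSO vehicle-treated wells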
Conditions: second compound 0.0316 µM; first compound 0.00316 µM; hits give low values
observed.property: viability, T/C (%)
Quick reminder: number only, in %, skip the unit.

Take a look at these entries with their results.
molecule: NC1CCC(NC2CC2c2ccccc2)CC1 (stereo not given) + CNC(C)C(=O)NC1CN(S(=O)(=O)c2cccc(S(=O)(=O)N3CCC4CCC(C(=O)NC(c5ccccc5)c5ccccc5)N4C(=O)C(NC(=O)C(C)NC)C3)c2)CCC2CCC(C(=O)NC(c3ccccc3)c3ccccc3)N2C1=O
viability, T/C [%]: 75.6
--
molecule: CCN1CCN(Cc2ccc(Nc3ncc(F)c(-c4cc(F)c5nc(C)n(C(C)C)c5c4)n3)nc2)CC1 + CNC(C)C(=O)NC1CN(S(=O)(=O)c2cccc(S(=O)(=O)N3CCC4CCC(C(=O)NC(c5ccccc5)c5ccccc5)N4C(=O)C(NC(=O)C(C)NC)C3)c2)CCC2CCC(C(=O)NC(c3ccccc3)c3ccccc3)N2C1=O
viability, T/C [%]: 76

Query: Supply viability, T/C value. Item: O=C(c1ccc(F)c(F)c1Nc1ccc(I)cc1F)N1CC(O)([C@@H]2CCCCN2)C1 + CNC(C)C(=O)NC1CN(S(=O)(=O)c2cccc(S(=O)(=O)N3CCC4CCC(C(=O)NC(c5ccccc5)c5ccccc5)N4C(=O)C(NC(=O)C(C)NC)C3)c2)CCC2CCC(C(=O)NC(c3ccccc3)c3ccccc3)N2C1=O
Reply: 83.6

Query: Supply viability, T/C value. Item: COc1c(OCCCN2CCOCC2)ccc2c3n(c(=NC(=O)c4cnc(N)nc4)nc12)CCN3 + CNC(C)C(=O)NC1CN(S(=O)(=O)c2cccc(S(=O)(=O)N3CCC4CCC(C(=O)NC(c5ccccc5)c5ccccc5)N4C(=O)C(NC(=O)C(C)NC)C3)c2)CCC2CCC(C(=O)NC(c3ccccc3)c3ccccc3)N2C1=O
Reply: 69.8

Query: Supply viability, T/C value. Item: Cn1ncnc1[C@H]1c2n[nH]c(=O)c3cc(F)cc(c23)N[C@@H]1c1ccc(F)cc1 + CNC(C)C(=O)NC1CN(S(=O)(=O)c2cccc(S(=O)(=O)N3CCC4CCC(C(=O)NC(c5ccccc5)c5ccccc5)N4C(=O)C(NC(=O)C(C)NC)C3)c2)CCC2CCC(C(=O)NC(c3ccccc3)c3ccccc3)N2C1=O
Reply: 84.5

---

System: OVCAR-5 complex spheroid (HUVEC/MSC), viability % T/C
Test: Anticancer human tumor OVCAR-5 cell line growth inhibition [Asc];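 note: spheroids exposed to agents for 7 days before readout; 100% = DMSO vehicle-treated wells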
Conditions: second compound 3 µM; first compound 0.01 µM; hits give low values
Label key: met means viability, T/C under 90%; not met means viability, T/C of 90% or more.

Look over these answered cases.
molecule: CNC(C)C(=O)NC1CN(S(=O)(=O)c2cccc(S(=O)(=O)N3CCC4CCC(C(=O)NC(c5ccccc5)c5ccccc5)N4C(=O)C(NC(=O)C(C)NC)C3)c2)CCC2CCC(C(=O)NC(c3ccccc3)c3ccccc3)N2C1=O (stereo unspecified) + CCN1C(C(=O)NC23CCC(C(=O)O)(CC2)CC3)C(c2cccc(Cl)c2F)C2(C(=O)Nc3cc(Cl)ccc32)C12CCCCC2
category.label: not met
--
molecule: CCN1CCN(Cc2ccc(Nc3ncc(F)c(-c4cc(F)c5nc(C)n(C(C)C)c5c4)n3)nc2)CC1 + CCN1C(C(=O)NC23CCC(C(=O)O)(CC2)CC3)C(c2cccc(Cl)c2F)C2(C(=O)Nc3cc(Cl)ccc32)C12CCCCC2
category.label: not met
--
molecule: COc1c(OCCCN2CCOCC2)ccc2c3n(c(=NC(=O)c4cnc(N)nc4)nc12)CCN3 + CCN1C(C(=O)NC23CCC(C(=O)O)(CC2)CC3)C(c2cccc(Cl)c2F)C2(C(=O)Nc3cc(Cl)ccc32)C12CCCCC2
category.label: met

Switching to the query record.
Query: Answer whether the molecule NC1CCC(NC2CC2c2ccccc2)CC1 (stereo unspecified) + CCN1C(C(=O)NC23CCC(C(=O)O)(CC2)CC3)C(c2cccc(Cl)c2F)C2(C(=O)Nc3cc(Cl)ccc32)C12CCCCC2 has viability, T/C strictly less than 90%
Reply: met

---

Below is a list of entries, each paired with its recorded viability, T/C value.
System: OVCAR-5 complex spheroid (HUVEC/MSC), viability % T/C
Assay: Anticancer human tumor OVCAR-5 cell line growth inhibition [Asc];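 note: spheroids exposed to agents for 7 days before readout; 100% = DMSO vehicle-treated wells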
Settings: second compound 0.316 µM; first compound 3.16 µM; hits give low values
Quick reminder: number only, in %, skip the unit.

Take a look at these entries with their results.
compound: O=C(c1cc(Cc2n[nH]c(=O)c3ccccc23)ccc1F)N1CCN(C(=O)C2CC2)CC1 + Cc1c(S(C)(=O)=O)c(-c2cc(F)cc(N3CCN(c4ccc(NS(=O)(=O)c5ccc(NC(CCN6CCC(C(=O)OCCCP(=O)(O)O)CC6)CSc6ccccc6)c(S(=O)(=O)C(F)(F)F)c5)cc4)CC3)c2)c(-c2ccc(Cl)cc2)n1C(C)C
system.tested: OVCAR-5 complex spheroid (HUVEC/MSC), viability % T/C
viability, T/C, %: 83.6
//
compound: O=C(c1cc(Cc2n[nH]c(=O)c3ccccc23)ccc1F)N1CCN(C(=O)C2CC2)CC1 + CNC(C)C(=O)NC1CN(S(=O)(=O)c2cccc(S(=O)(=O)N3CCC4CCC(C(=O)NC(c5ccccc5)c5ccccc5)N4C(=O)C(NC(=O)C(C)NC)C3)c2)CCC2CCC(C(=O)NC(c3ccccc3)c3ccccc3)N2C1=O
system.tested: OVCAR-5 complex spheroid (HUVEC/MSC), viability % T/C
viability, T/C, %: 67.2
//
compound: C=C(F)C(=O)N1CCN(c2nc(OCC3CCCN3C)nc3c2CCN(c2cccc4cccc(Cl)c24)C3)CC1CC#N (stereo not drawn) + Cc1c(S(C)(=O)=O)c(-c2cc(F)cc(N3CCN(c4ccc(NS(=O)(=O)c5ccc(NC(CCN6CCC(C(=O)OCCCP(=O)(O)O)CC6)CSc6ccccc6)c(S(=O)(=O)C(F)(F)F)c5)cc4)CC3)c2)c(-c2ccc(Cl)cc2)n1C(C)C
system.tested: OVCAR-5 complex spheroid (HUVEC/MSC), viability % T/C
viability, T/C, %: 1.91
//
compound: C=C(F)C(=O)N1CCN(c2nc(OCC3CCCN3C)nc3c2CCN(c2cccc4cccc(Cl)c24)C3)CC1CC#N (stereo not drawn) + CNC(C)C(=O)NC1CN(S(=O)(=O)c2cccc(S(=O)(=O)N3CCC4CCC(C(=O)NC(c5ccccc5)c5ccccc5)N4C(=O)C(NC(=O)C(C)NC)C3)c2)CCC2CCC(C(=O)NC(c3ccccc3)c3ccccc3)N2C1=O
system.tested: OVCAR-5 complex spheroid (HUVEC/MSC), viability % T/C
viability, T/C, %: 9.19
//
compound: C=CC(=O)N1CCN(c2nc(=O)n(-c3c(C)ccnc3C(C)C)c3nc(-c4c(O)cccc4F)c(F)cc23)C(C)C1 (stereo not drawn) + CNC(C)C(=O)NC1CN(S(=O)(=O)c2cccc(S(=O)(=O)N3CCC4CCC(C(=O)NC(c5ccccc5)c5ccccc5)N4C(=O)C(NC(=O)C(C)NC)C3)c2)CCC2CCC(C(=O)NC(c3ccccc3)c3ccccc3)N2C1=O
system.tested: OVCAR-5 complex spheroid (HUVEC/MSC), viability % T/C
viability, T/C, %: 104
//
compound: C=CC(=O)N1CCN(c2nc(=O)n(-c3c(C)ccnc3C(C)C)c3nc(-c4c(O)cccc4F)c(F)cc23)C(C)C1 (stereo not drawn) + Cc1c(S(C)(=O)=O)c(-c2cc(F)cc(N3CCN(c4ccc(NS(=O)(=O)c5ccc(NC(CCN6CCC(C(=O)OCCCP(=O)(O)O)CC6)CSc6ccccc6)c(S(=O)(=O)C(F)(F)F)c5)cc4)CC3)c2)c(-c2ccc(Cl)cc2)n1C(C)C
system.tested: OVCAR-5 complex spheroid (HUVEC/MSC), viability % T/C
viability, T/C, %: 112

Query: Supply viability, T/C value. Item: C#Cc1c(F)ccc2cc(O)cc(-c3ncc4c(N5CC6CCC(C5)N6)nc(OCC56CCCN5CC(F)C6)nc4c3F)c12 (stereo not drawn) + Cc1c(S(C)(=O)=O)c(-c2cc(F)cc(N3CCN(c4ccc(NS(=O)(=O)c5ccc(NC(CCN6CCC(C(=O)OCCCP(=O)(O)O)CC6)CSc6ccccc6)c(S(=O)(=O)C(F)(F)F)c5)cc4)CC3)c2)c(-c2ccc(Cl)cc2)n1C(C)C
Reply: 61.1

Query: Supply viability, T/C value. Item: C#Cc1c(F)ccc2cc(O)cc(-c3ncc4c(N5CC6CCC(C5)N6)nc(OCC56CCCN5CC(F)C6)nc4c3F)c12 (stereo not drawn) + CNC(C)C(=O)NC1CN(S(=O)(=O)c2cccc(S(=O)(=O)N3CCC4CCC(C(=O)NC(c5ccccc5)c5ccccc5)N4C(=O)C(NC(=O)C(C)NC)C3)c2)CCC2CCC(C(=O)NC(c3ccccc3)c3ccccc3)N2C1=O
Reply: 61.2
